TESTED TARGET: HLA-A*24 (human)
ASSAY COMMENT: UV-ligand exchange ELISA
Catalogue of binders with associated peptide exchange yield

BINDER	peptide exchange yield
FYSRLLQKF [peptide SEQ ID No 203]	50 to 75%
EFGSLHLEFL [peptide SEQ ID No 194]	< 20%
QYLGQIQHI [peptide SEQ ID No 268]	50 to 75%
VYPWLGALL [peptide SEQ ID No 177]	> 75%
KFVDSTFYL [peptide SEQ ID No 282]	> 75%
KYMVYPQTF [peptide SEQ ID No 267]	> 75%
GFFIFNERF [peptide SEQ ID No 190]	50 to 75%
RYISDQLFTNF [peptide SEQ ID No 278]	> 75%

All values here come from patent US20170189507A1.
